Attribute: Drug uptake
tested on: Bone; experiment: Biodistribution in bone of Fischer 344 rat bearing rat 9L cells at 20 uCi, iv after 60 mins; format: ADME, organism-based, Bone element; conditions: in vivo, 1 h
Give the quantity in % ID/g, number only.

• C[C@](N)(C[18F])C(=O)O.Cl = 0.36
• CN[C@](C)(C[18F])C(=O)O.Cl = 0.37
• CN[C@@](C)(C[18F])C(=O)O.Cl = 0.51

Continue with the next compound.
Lab note: C[C@@](N)(C[18F])C(=O)O.Cl gave Drug uptake of 0.3

----------
experiment: Ratio of drug level from tumor to brain of Fischer 344 rat bearing rat 9L cells at 20 uCi, iv after 120 mins; assay type: ADME, organism-based; settings: in vivo, 2 h
Catalogue of compounds with associated Ratio
Please reply with the number alone, leaving off any unit.

See these solved cases before continuing.
• C[C@](N)(C[18F])C(=O)O.Cl = 27.5
• CN[C@@](C)(C[18F])C(=O)O.Cl = 115.4
• CN[C@](C)(C[18F])C(=O)O.Cl = 35.4

Attention now shifts to the item below.
Entry C[C@@](N)(C[18F])C(=O)O.Cl — recorded Ratio = 27.7

----------
tested on: Muscle tissue; experiment: Biodistribution in muscle of Fischer 344 rat bearing rat 9L cells at 20 uCi, iv after 120 mins; format: ADME, organism-based; conditions: in vivo, 2 h
Entries annotated with measured Drug uptake
Give just the number in % ID/g; leave the unit off.

• CN[C@@](C)(C[18F])C(=O)O.Cl = 0.22
• CN[C@](C)(C[18F])C(=O)O.Cl = 0.22
• C[C@@](N)(C[18F])C(=O)O.Cl = 0.36

// next item, Drug uptake requested
Observed Drug uptake, Muscle tissue, C[C@](N)(C[18F])C(=O)O.Cl : 0.36

----------
tested on: Kidney; test: Biodistribution in kidney of Fischer 344 rat bearing rat 9L cells at 20 uCi, iv after 30 mins; type: ADME, organism-based; conditions: in vivo, 0.5 h
Recorded Drug uptake by entry
Report the figure in % ID/g without appending any unit label.

Worked examples, 3 compounds total:
• C[C@](N)(C[18F])C(=O)O.Cl = 3.47
• C[C@@](N)(C[18F])C(=O)O.Cl = 8.71
• CN[C@@](C)(C[18F])C(=O)O.Cl = 8.91

// next item, Drug uptake requested
Record CN[C@](C)(C[18F])C(=O)O.Cl / Kidney, Drug uptake recorded as 9.48

----------
The compounds listed here are annotated with their Drug uptake.
system: Bone; test: Biodistribution in bone of Fischer 344 rat bearing rat 9L cells at 20 uCi, iv after 120 mins; assay type: ADME, organism-based, Bone element; conditions: in vivo, 2 h
Remember to follow the number with its unit.

Examples with their reported Drug uptake follow.
• C[C@](N)(C[18F])C(=O)O.Cl = 0.26 % ID/g
• C[C@@](N)(C[18F])C(=O)O.Cl = 0.31 % ID/g
• CN[C@@](C)(C[18F])C(=O)O.Cl = 0.44 % ID/g

Below: the item to evaluate.
// Drug uptake lookup, compound = CN[C@](C)(C[18F])C(=O)O.Cl , result: 0.25 % ID/g

----------
tested on: 9L; test: Cellular uptake in rat 9L cells assessed as inhibition of uptake at 5 uCi measured […] by gamma counting in presence of system A transport inhibitor MeAIB relative to control; assay type: ADME, cell-based; design: scale not given: the % may be the effect or the level left
The entries below come with measured Activity values attached.
Enter your answer as a number in %; do not include the unit.

Consider the worked cases shown below.
* CN[C@](C)(CF)C(=O)O.Cl | 79
* CN[C@@](C)(CF)C(=O)O.Cl | 92
* C[C@@](N)(CF)C(=O)O.Cl | 31

# evaluate next
According to the records, this molecule C[C@](N)(CF)C(=O)O.Cl displays Activity of 58
